Assay: Quantitative highthroughput screen to assess conditional lethalithy of NOMO1 cells grown in RPMI1640 with dialyzed fetal bovine serum (RPMI+ds) (AID 1963877); note: nearly all actives have a fitted effect of over 30% in size;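 for viability: 100% = DMSO control wells and 0% = empty wells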
Conditions: NOMO1 in RPMI+dialyzed FBS viability, ATP luminescence, 48 h; series mostly up to 45.8 µM
Results filed as inconclusive are left out. The source made the active and inactive calls. Calls come from the whole dose curve; as a rule, active = well fitted cell-killing curve with a large enough effect; inconclusive = small, poorly fitted or top-dose-only effect; inactive = flat fitted curve, though single readings scatter.
A correct response names exactly one class from 1.0 for active, 0.0 for inactive

[ask] Query: recorded result category for CC[C@@H]1C=C(C)C[C@H](C)C[C@H](OC)[C@H]2O[C@@](O)(C(=O)C(=O)N3CCCC[C@@H]3C(=O)O[C@H](C(C)=C[C@@H]3CC[C@H](Cl)[C@H](OC)C3)[C@H](C)[C@@H](O)CC1=O)[C@H](C)C[C@H]2OC in this test
[reply] 0.0

[ask] Could you please tell me the result logged for CCCc1cc(C(N)=S)ccn1 in this assay?
[reply] 0.0

[ask] Please indicate how the test categorized CCN1CCN(CC(=O)Nc2ccc(-c3cccc4c(=O)cc(N5CCOCC5)oc34)c3sc4ccccc4c23)CC1 .
[reply] 1.0

[ask] For O=C(O)c1cn(-c2ccc(F)cc2)c2cc(N3CCNCC3)c(F)cc2c1=O , which call appears in the assay record?
[reply] 0.0

[ask] So what was the verdict on CC(C)NCC(O)COc1ccc(COCCOC(C)C)cc1 (centres undefined) in this test?
[reply] 0.0

[ask] Recorded call for Cc1c(C(=O)Nc2ccc(N3C[C@@H](C)O[C@@H](C)C3)nc2)cccc1-c1ccc(OC(F)(F)F)cc1 ?
[reply] 1.0

[ask] Tell me the recorded outcome of this test for CC(C)(CO)[C@@H](O)C(=O)NCCC(=O)O .
[reply] 0.0

[ask] Outcome? CC(C)(N)c1ccc(-c2nc3ccccc3nc2-c2ccccc2)cc1
[reply] 1.0

[ask] What was the test verdict on CS(=O)(=O)c1ccc(C2=C(c3ccccc3)C(=O)OC2)cc1 ?
[reply] 0.0

[ask] Assay result, entry Cc1nc2c([nH]1)CCN(C(=O)c1ccc(NC(=O)c3ccccc3-c3ccccc3)cc1)c1ccccc1-2 — outcome?
[reply] 0.0

[ask] Hello, I am checking results. What call was entered for CCOC(=O)c1c(CSc2ccccc2)n(C)c2cc(Br)c(O)c(CN(C)C)c12 ?
[reply] 1.0

[ask] Hi, do you know how CC(=O)N1CCN(c2ccc(OC[C@H]3CO[C@](Cn4ccnc4)(c4ccc(Cl)cc4Cl)O3)cc2)CC1 came out in this test?
[reply] 0.0

[ask] Recorded test call requested for O=C(C=Cc1ccc(/C=C/C(=O)Nc2ccc(C3=NCCN3)cc2)cc1)Nc1ccc(C2=NCCN2)cc1
[reply] 0.0

[ask] What classification did OC(CN1CCN(c2cccc(Cl)c2)CC1)C(c1ccccc1)c1ccccc1 (centres undefined) end up with in this test?
[reply] 1.0

[ask] How was CN1C(C(=O)Nc2ccccn2)=C(O)c2sc(Cl)cc2S1(=O)=O classified in this test?
[reply] 0.0

[ask] Answer briefly: the call reported for O=C(O)c1cccc(-c2noc(-c3ccccc3F)n2)c1 in this assay.
[reply] 0.0

[ask] What is the recorded call for this molecule in the test? O=C(NCc1ccccc1)[C@H](Cc1ccccc1)NC(=O)[C@@H]1O[C@@H]1C(=O)NCCc1ccc(O)cc1
[reply] 0.0

[ask] Fill in: this test's call for COc1cc(C=CC(=O)CC(=O)C=Cc2ccc(O)c(OC)c2)ccc1O is ___
[reply] 1.0

[ask] Per the records of this test, what outcome belongs to N#CC1(c2cccc(C(=O)Nc3cc(Oc4ccc5nc(NC(=O)C6CC6)sc5n4)ccc3F)c2Cl)CC1 ?
[reply] 1.0
